- tested on: RELARELA (p65 homodimer) (Homo sapiens, UniProt Q04206 1-307)
- Sequence (Q04206 1-307): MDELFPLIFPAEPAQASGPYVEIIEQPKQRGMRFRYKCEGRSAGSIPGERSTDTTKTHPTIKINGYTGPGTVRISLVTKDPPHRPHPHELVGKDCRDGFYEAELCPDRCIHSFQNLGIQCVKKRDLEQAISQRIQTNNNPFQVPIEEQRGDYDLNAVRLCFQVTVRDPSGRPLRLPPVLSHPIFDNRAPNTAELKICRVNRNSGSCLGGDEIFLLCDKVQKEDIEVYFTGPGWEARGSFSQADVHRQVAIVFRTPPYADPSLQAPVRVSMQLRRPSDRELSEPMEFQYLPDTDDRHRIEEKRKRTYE
- assay explanation: protein binding microarray; high values mean tight binding
- test settings: dsDNA, one strand shown
For each entry below, report its binding signal value.
Answers are plain numbers, in z-score.

Please review the following examples before continuing.
> print(dat)
   sequence.text    readout.name  measurement.units  numeric.readout
1    GGGGACACCCC  binding signal            z-score            0.873
2    AAGAGGTTCCT  binding signal            z-score           0.0133
3    AAAGACGCCCC  binding signal            z-score           -0.195

Need binding signal for each of these sequences.
1. GGGAGTGTCCT
2. AGGGAGTTCCT
3. AGAGAGGCCCC
4. AGGTTTATCCT
5. GAAGAAGCCCT
6. CAATGACCCCC

1. 0.931
2. 0.744
3. -0.813
4. -0.465
5. -0.988
6. -0.602

Need binding signal for each of these sequences.
1. AAAAATCCCCT
2. AAAAGTCTCCC
3. CGGAGGCCCCC
4. CGATACACCCT

1: 2.27; 2: 0.0565; 3: -1.02; 4: -0.54

Need binding signal for each of these sequences.
1. CGAAGACTCCC
2. CAATACATCCC
3. CAGGGAGTCCT

1. -0.527
2. -0.0719
3. 0.0727

Need binding signal for each of these sequences.
1. CGGTGGTTCCT
2. GAGAACTCCCC
3. AAATTGGCCCC
4. AGATTGGTCCT
5. CGGTACATCCC

1. 0.0744
2. 0.725
3. -0.344
4. -0.38
5. 0.722
